- System: HEK293 cell line
- Assay Explanation: HEK293 alamar blue/resazurin assay (mitochondria function)
- Type: cell-based, human
- Condition Info: Homo sapiens; HEK293, Alamar blue/Resazurin assay, 48 h incubation
I'd appreciate it if you could supply EC50 values for the items below.
Only the number, expressed in µM, is required.

Data request, read-out EC50, for C=C(C1CCC(C)(O)C(Br)C1)C1C(Br)C2C(CCC2(C)O)C1(C)C (stereo not shown)
0.062

Data request, read-out EC50, for C=CC(C)(O)CC[C@@H]1C(=C)CC[C@@H](Br)[C@@]1(C)CCC1OC1(C)C (stereo partly shown)
0.225

Data request, read-out EC50, for "CC1=C2CC[C@@](C)(Cl)[C@@H](Br)C[C@]2(C)[C@@H](C)[C@@H](Br)[C@@H]1O"
10.8

Data request, read-out EC50, for CC(C)[C@@H]1CC=C[C@H]2[C@H]3[C@](C)(CC[C@]12CBr)[C@@H](Br)CC[C@@]3(C)O [Bromosphaerol, reference compound]
57.6

###

- Test system: cyprids of A. amphitrite
- Assay Explanation: whole plant or invertebrate
- Format: in vivo
- Condition Info: Amphibalanus amphitrite, 24 h, read-out: EC50 No Metamorphosis
pEC50: −log10 of the molar value.
Please use rule met whenever pEC50 is not below 5, and rule not met whenever it is.

Entry CC1(C(Br)CO)CC=C2C(C1)C(O)CC1C2(C)CCC(Br)C1(C)C (stereo not shown) : is its pEC50 no less than 5?
rule met

Entry CC(=CC=CC1(C)CCC(Br)C(C)(C)O1)C1CCC(C)(O)C(Br)C1 (stereo not shown) : is its pEC50 no less than 5?
rule not met

Entry CC(C)C1=C2CCC(C)C2CC(C)(C)C1O (stereo not shown) [Compound 8, 4-hydroxy-5-brasilene] : is its pEC50 no less than 5?
rule met

Entry CC1C(Br)C(=O)C(C)C23CCC2(C)C(Br)CC13C (stereo not shown) : is its pEC50 no less than 5?
rule met

Entry C#CC=CCC1OC(C(Br)CC)CC(OC(C)=O)C(Cl)CC1Cl (stereo not shown) : is its pEC50 no less than 5?
rule met

Entry Cc1cc2c(cc1Br)C1(C)CCC(C)(O2)C1C (stereo not shown) : is its pEC50 no less than 5?
rule not met

###

I'd appreciate it if you could supply LC50 at 24 h values for the items below.
- Assay Explanation: in vivo
- Type: in vivo
- Condition Info: Amphibalanus amphitrite, in vivo; 24 h exposure; read-out: LC50 Mortality
Only the number, expressed in µM, is required.

Data request, read-out LC50 at 24 h, for CC(C)[C@@H]1CC=C[C@H]2[C@H]3[C@](C)(CC[C@]12CBr)[C@@H](Br)CC[C@@]3(C)O [Bromosphaerol, reference compound]
17.9

Data request, read-out LC50 at 24 h, for C#CC=CCC1OC(C(Br)CC)CC(OC(C)=O)C(Cl)CC1Cl (centres unmarked) [Compound 22, laurencienyne]
6.86

Data request, read-out LC50 at 24 h, for Cc1ccc(C2(C)CCC(=CBr)C2C)c(O)c1 (centres unmarked) [Compound 4, iso-laurenisol]
3.55

Data request, read-out LC50 at 24 h, for C=C1CC[C@@](C)(c2ccc(C)cc2)[C@H]1C [Compound 1, laurene]
26

###

- System: cyprids of A. amphitrite
- Assay Explanation: whole plant or invertebrate
- Type: in vivo
- Condition Info: Amphibalanus amphitrite, 24 h, read-out: EC50 No Metamorphosis
Result Type: EC50 (µM)
Only the number, expressed in µM, is required.

Data request, read-out EC50, for C=CC(C)(O)CCC1C(=C)CCC(Br)C1(C)CCC(O)C(C)(C)Cl (stereo not shown) [Compound 16]
58.3

Data request, read-out EC50, for CCC=CCC(Br)C(CC1OC(C=C=CBr)CC1OC(C)=O)OC(C)=O (stereo not shown) [Compound 23, graciosallene]
0.276

Data request, read-out EC50, for C=C(C1CCC(C)(O)C(Br)C1)C1C(Br)C2C(CCC2(C)O)C1(C)C (stereo not shown) [Compound 19, neorogioldiol]
52.8

Data request, read-out EC50, for C=CC(C)(O)CCC1C(=C)CCC(Br)C1(C)CCC(Br)C(C)(C)O (stereo not shown) [Compound 17]
0.057

Data request, read-out EC50, for C=C1CC[C@@](C)(c2ccc(C)cc2OC(C)=O)[C@H]1C [Compound 2, debromoallolaurinterol acetate]
44

Data request, read-out EC50, for CC(=O)OCC(Br)C1(C)CC=C2C(C1)C(O)CC1C2(C)CC(OC(C)=O)C2CC21C (stereo not shown) [Compound 15, deoxyparguerol 16-acetate]
63.6

Data request, read-out EC50, for CC(C)[C@H]1CC(C)(C)[C@@H](O)C2=C1CC[C@H]2C [Compound 7, epibrasilenol]
25.4

Data request, read-out EC50, for CC1=CC[C@@]2(C)C(=C(C)C(=O)[C@@H](O)[C@@H]2C)CC1 [Compound 10, perforenone A]
39.3

Data request, read-out EC50, for CC(C)[C@@H]1CC=C[C@H]2[C@H]3[C@](C)(CC[C@]12CBr)[C@@H](Br)CC[C@@]3(C)O [Bromosphaerol, reference compound]
0.45

Data request, read-out EC50, for C#CC=CCC1OC(C=CC)CC=CCC1Cl (stereo not shown) [Compound 21, (3Ε)-laurenyne]
7.42

Data request, read-out EC50, for C=CC(C)(O)CC[C@@H]1C(=C)CC[C@@H](Br)[C@@]1(C)CCC1OC1(C)C (stereo partly shown) [Compound 18]
45.4

Data request, read-out EC50, for C=C1CC[C@@](C)(c2ccc(C)cc2)[C@H]1C [Compound 1, laurene]
38

Data request, read-out EC50, for Cc1cc(O)c(C2(C)CCC3CC32C)cc1Br (stereo not shown) [Compound 6, laurinterol]
28.3

Data request, read-out EC50, for C=CC(C)(O)CC[C@H](Br)[C@@]1(C)CC[C@H](Br)C(C)(C)O1 (stereo partly shown) [Compound 13, obtusenol]
46.4

Data request, read-out EC50, for C=C1C[C@H](O)[C@H](Br)C(C)(C)[C@@]12CCC(C)=C(Cl)C2 [Compound 12, elatol]
0.396

Data request, read-out EC50, for CC1=C2CC[C@@](C)(Cl)[C@@H](Br)C[C@]2(C)[C@@H](C)[C@@H](Br)[C@@H]1O [Compound 9, perforenol]
38.2

###

- Assay Explanation: in vivo
- Type: in vivo
- Condition Info: Amphibalanus amphitrite, in vivo; 48 h exposure; read-out: LC50 Mortality
Result Type: LC50 at 48 h (µM)
Only the number, expressed in µM, is required.

Data request, read-out LC50 at 48 h, for CC1=C2CC[C@@](C)(Cl)[C@@H](Br)C[C@]2(C)[C@@H](C)[C@@H](Br)[C@@H]1O [Compound 9, perforenol]
116

Data request, read-out LC50 at 48 h, for C#CC=CCC1OC(C=CC)CC=CCC1Cl (stereo not drawn) [Compound 21, (3Ε)-laurenyne]
1.12

Data request, read-out LC50 at 48 h, for C#CC=CCC1OC(C(Br)CC)CC(OC(C)=O)C(Cl)CC1Cl (stereo not drawn) [Compound 22, laurencienyne]
10.1

Value source: paper PMC6891695
